- PROTOCOL: NIH:OVCAR-3 ovarian cancer cell cytotoxicity, dose response, PAX8 inhibitor project, plate reader, dry powder samples (AID 743044)
- RUN PARAMETERS: NIH:OVCAR-3 ovarian cancer cell viability; at 35 µM, stronger effect = lower value unless noted
Potency and affinity values are given separately. Records with an inconclusive call do not appear. Active and inactive are the calls of the source. No rule for the calls is given here.
MEASURED QUANTITY: max activity

[in] Need max activity, item `CN1C(=O)c2cc(NC(=O)c3cccc(Cl)c3)ccc2OC[C@@H]2O[C@H](CC(=O)NC3CCCCC3)CC[C@@H]21`
[out] -25.7% (inactive)

* * *

- PROTOCOL: HepG2 cell viability effects, profiling panel, calcein-AM fluorescence, 48 h, basal (AID 1164)
- RUN PARAMETERS: higher = more signal
Classify on z-score using class 1 = under -0.7, class 2 = from -0.7 up to -0.3, class 3 = -0.3 and over

[in] Hi, small favor: classify `CCOC(=O)C[C@H]1[C@H](OC(=O)c2cc3ccccc3oc2=O)[C@@H](NC(=O)c2ccccc2)c2cc(OCCCO)ccc2N1C(=O)Cc1ccc(OC)cc1` by its z-score when you get a moment.
[out] class 2

[in] Now give it for `COCCOC(=O)N1C(=O)[C@@]2(c3cc(C#CC4(O)CCCCCC4)ccc31)[C@H](c1ccccc1OCCO)N1[C@H](c3ccccc3)[C@H](c3ccccc3)OC(=O)[C@H]1[C@@H]2C(=O)Nc1nc2ccccc2s1` too.
[out] class 3

[in] Now give it for `C=CCNC(=O)[C@@H]1[C@H]2C(=O)O[C@H](c3ccccc3)[C@H](c3ccccc3)N2[C@H](c2ccc(O)cc2)[C@@]12C(=O)Nc1ccc(C#Cc3ccc(OC)cc3)cc12` too.
[out] class 1

[in] Now give it for `C=CCOC(=O)[C@H]1[C@@H]2C(=O)O[C@@H](c3ccccc3)[C@@H](c3ccccc3)N2[C@@H](c2ccc(OCCOC(=O)[C@H]3C[C@H]4C(=O)N5CCC[C@H]5C(=O)N4[C@H]3c3cccc(OCCO)c3)cc2)[C@]12C(=O)Nc1ccccc12` too.
[out] class 2

[in] Now give it for CC(C)C[C@@H]1NC(=O)[C@@]23C(=O)N[C@@H](Cc4ccccc4)C2[C@H](C)[C@@]2(C)O[C@H]2C3/C=C/CC/C=C/CNC(=O)[C@@H](C)NC1=O (some centres not stated) too.
[out] class 2

[in] Now give it for `C=C[C@H](OC)[C@@H](OC(=O)Nc1ccc(OC)cc1)c1ccc(OC)c(O)c1` too.
[out] class 1

[in] Now give it for `COC(=O)c1c(CC[C@@H](CO)NC(=O)Nc2ccc(OC)cc2)oc(C(=O)Cc2ccccc2)c1C(=O)OC` too.
[out] class 3

[in] Now give it for CC(C)C(CO)N1C(=O)[C@@H]2C3C(=O)OCCC/C=C\[C@H]3OC23C=CCN(C(C)C)C(=O)[C@@H]13 (some centres not stated) too.
[out] class 2

[in] Now give it for `CCOC(=O)C[C@H]1[C@H](OC(=O)Cc2ccc3c(c2)OCO3)[C@@H](NC(=O)c2ccc3ccccc3c2)c2cc(OCCCO)ccc2N1C(=O)c1ccc2ccccc2n1` too.
[out] class 3

[in] Now give it for `COc1ccc([Si](C)(C)[C@@H]2[C@@H](CC(=O)N3CCC[C@H]3CO)O[C@]3(C(=O)N(Cc4ccc(I)cc4)c4ccccc43)[C@H]2C)cc1` too.
[out] class 1

[in] Now give it for `COc1ccc([Si](C)(C)[C@H]2[C@H](CC(=O)N(CCO)Cc3ccccc3)O[C@@]3(C(=O)N(Cc4ccc(N5CCOC5=O)cc4)c4ccccc43)[C@@H]2C)cc1` too.
[out] class 1

[in] Now give it for `CC(C)[Si](C#C[Si](C(C)C)(C(C)C)C(C)C)(O[C@H](C)c1cn([C@H](C)c2ccccc2)nn1)C(C)C` too.
[out] class 3

These measurements were taken from PubChem BioAssay.
